Data provenance is ChEMBL document CHEMBL4715781.

target: C-C chemokine receptor type 5 (Homo sapiens, UniProt P51681); test: Antagonist activity at CCR5 receptor in human MOLT4 cells transfected with Gqi5 assessed as inhibition of RANTES-induced calcium mobilization incubated for 15 mins prior to RANTES addition and measured for 120 secs by Fluo-4AM dye based fluorescence analysis
Sequence (P51681 whole entry): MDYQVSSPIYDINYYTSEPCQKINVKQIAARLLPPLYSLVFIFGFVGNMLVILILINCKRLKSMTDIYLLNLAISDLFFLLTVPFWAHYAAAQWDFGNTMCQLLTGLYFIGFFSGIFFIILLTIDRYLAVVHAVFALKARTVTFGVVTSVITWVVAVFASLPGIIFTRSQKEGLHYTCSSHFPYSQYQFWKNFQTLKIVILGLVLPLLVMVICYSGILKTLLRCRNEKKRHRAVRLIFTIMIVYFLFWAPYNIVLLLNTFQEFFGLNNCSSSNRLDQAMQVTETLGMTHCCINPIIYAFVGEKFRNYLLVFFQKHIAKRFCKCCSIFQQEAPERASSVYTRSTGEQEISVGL

Smiles Text	IC50 [nM]
CNC(=O)COCC(=O)NCCCCCCCCCNC(=O)COCC(=O)Nc1ccc([C@H](CCN2[C@@H]3CC[C@H]2C[C@@H](n2c(C)nnc2C(C)C)C3)NC(=O)C2CCC(F)(F)CC2)cc1	392
CNC(=O)COCC(=O)NCCCCCCCNC(=O)COCC(=O)Nc1cccc([C@H](CCN2[C@@H]3CC[C@H]2C[C@@H](n2c(C)nnc2C(C)C)C3)NC(=O)C2CCC(F)(F)CC2)c1	129
CNC(=O)COCC(=O)NCCCCCNC(=O)COCC(=O)Nc1ccc([C@H](CCN2[C@@H]3CC[C@H]2C[C@@H](n2c(C)nnc2C(C)C)C3)NC(=O)C2CCC(F)(F)CC2)cc1	948
CNC(=O)COCC(=O)NCCCCCCCNC(=O)COCC(=O)Nc1ccc([C@H](CCN2[C@@H]3CC[C@H]2C[C@@H](n2c(C)nnc2C(C)C)C3)NC(=O)C2CCC(F)(F)CC2)cc1	622
Cc1nnc(C(C)C)n1[C@H]1C[C@H]2CC[C@@H](C1)N2CC[C@H](NC(=O)C1CCC(F)(F)CC1)c1ccc(NC(=O)COCC(=O)NCCCCCNC(=O)COCC(=O)N[C@@H]2CC[C@@]3(O)[C@H]4Cc5ccc(O)c6c5[C@@]3(CCN4CC3CC3)[C@H]2O6)cc1	2410

----------
molecular target: C-C chemokine receptor type 5 (Homo sapiens, UniProt P51681); test: Agonist activity at CCR5 receptor in human MOLT4 cells transfected with Gqi5 assessed as calcium mobilization incubated for 15 mins by Fluo-4AM dye based fluorescence analysis; type: functional, cell-based; conditions: MOLT-4
Sequence (P51681 whole entry, looked up): as the sequence (P51681 whole entry) above
The source made the active and inactive calls. The calls are words filed in the database; no cut-off is given here.

Smiles Text	Target Of Assay	Activity
Cc1nnc(C(C)C)n1[C@H]1C[C@H]2CC[C@@H](C1)N2CC[C@H](NC(=O)C1CCC(F)(F)CC1)c1ccc(NC(=O)COCC(=O)NCCCCCNC(=O)COCC(=O)N[C@@H]2CC[C@@]3(O)[C@H]4Cc5ccc(O)c6c5[C@@]3(CCN4CC3CC3)[C@H]2O6)cc1	C-C chemokine receptor type 5 (Homo sapiens, UniProt P51681)	inactive
Cc1nnc(C(C)C)n1[C@H]1C[C@H]2CC[C@@H](C1)N2CC[C@H](NC(=O)C1CCC(F)(F)CC1)c1cccc(NC(=O)COCC(=O)NCCCCCCCNC(=O)COCC(=O)N[C@@H]2CC[C@@]3(O)[C@H]4Cc5ccc(O)c6c5[C@@]3(CCN4CC3CC3)[C@H]2O6)c1	C-C chemokine receptor type 5 (Homo sapiens, UniProt P51681)	inactive
